B1: SPATS1 (parent)
chain: YPEQSKGFHKAGSMLPPVNFSIVP

# Variants of: B1
# test-name: protein stability index of a GFP-peptide fusion (GPS, HEK-293T) (PSI 1-6); higher = more stable;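 note: lentivirally expressed fusions sorted by FACS into six bins by GFP to DsRed ratio, PSI derived from sequencing read proportions per bin multiplied by bin number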
# condition-details: c terminus: a fixed tail appended
reported-endpoint: protein stability index
In your answer, state the number alone without any accompanying words.

*Q* Look up protein stability index: G12H
*A* 1.94

*Q* Also, K10Q please.
*A* 1.9

*Q* Also, P16V please.
*A* 2.16

*Q* Also, V23E please.
*A* 2.42

*Q* Also, K10N please.
*A* 2

*Q* Also, M14H please.
*A* 1.87

*Q* Also, P17E please.
*A* 1.85

*Q* Also, S21C please.
*A* 1.79

*Q* Also, K10W please.
*A* 3.61

*Q* Also, P17Q please.
*A* 1.76

*Q* Also, E3I please.
*A* 2.12
